Values were extracted from the supplement of paper PMC8728848.

target: Gal3S(b1-4)[Fuc(a1-3)]Glc6S; experiment: glycan array binding signal (z-score within array); higher = stronger binding; details: glycan notation: IUPAC condensed, linker removed
This is one part of a sample in which the strongest signals are shown more often than they occur.
For each entry below, report its glycan array binding signal (z-score) value.
# respond with the number and nothing more

(Q) Which glycan array binding signal (z-score) reading was recorded for the binder AT1G15820(2) (Arabidopsis thaliana), Q9LMQ2 (protein) MAMAVSGAVLSGLGSSFLTGGKRGATALASGVGTGAQRVGRKTLIVAAAAAQPKKSWIPAVKGGGNFLDPEWLDGSLPGDFGFDPLGLGKDPAFLKWYREAELIHGRWAMAAVLGIFVGQAWSGVAWFEAGAQPDAIAPFSFGSLLGTQLLLMGWVESKRWVDFFNPDSQSVEWATPWSKTAENFANYTGDQGYPGGRFFDPLGLAGKNRDGVYEPDFEKLERLKLAEIKHSRLAMVAMLIFYFEAGQGKTPLGALGL ?
(A) 1.96

(Q) For AT3G09350(27) (Arabidopsis thaliana), Q84J81 (protein) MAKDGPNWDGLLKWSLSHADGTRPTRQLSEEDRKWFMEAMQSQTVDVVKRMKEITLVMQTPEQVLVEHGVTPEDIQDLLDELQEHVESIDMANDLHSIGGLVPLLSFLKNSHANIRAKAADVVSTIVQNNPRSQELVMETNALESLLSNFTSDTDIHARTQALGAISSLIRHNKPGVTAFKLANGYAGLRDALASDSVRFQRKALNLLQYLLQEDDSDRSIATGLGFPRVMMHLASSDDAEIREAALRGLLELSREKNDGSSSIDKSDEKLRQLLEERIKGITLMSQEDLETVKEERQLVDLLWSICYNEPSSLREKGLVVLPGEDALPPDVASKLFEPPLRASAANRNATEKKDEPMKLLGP then?
(A) -0.174

(Q) For Langerin K299A/K313A (Homo sapiens), Q9UJ71 (protein) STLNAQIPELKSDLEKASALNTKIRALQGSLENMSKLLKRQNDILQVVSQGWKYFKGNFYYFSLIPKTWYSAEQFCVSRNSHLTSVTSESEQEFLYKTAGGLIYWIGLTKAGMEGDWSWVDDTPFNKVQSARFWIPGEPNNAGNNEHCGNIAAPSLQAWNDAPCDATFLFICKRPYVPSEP then?
(A) 5.35
